Target desc: Serine/threonine-protein kinase D1 (Homo sapiens) (UniProt Q15139);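 also: each value is an averaged percent inhibition of PRKD1 kinase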
Sequence (Q15139 whole entry): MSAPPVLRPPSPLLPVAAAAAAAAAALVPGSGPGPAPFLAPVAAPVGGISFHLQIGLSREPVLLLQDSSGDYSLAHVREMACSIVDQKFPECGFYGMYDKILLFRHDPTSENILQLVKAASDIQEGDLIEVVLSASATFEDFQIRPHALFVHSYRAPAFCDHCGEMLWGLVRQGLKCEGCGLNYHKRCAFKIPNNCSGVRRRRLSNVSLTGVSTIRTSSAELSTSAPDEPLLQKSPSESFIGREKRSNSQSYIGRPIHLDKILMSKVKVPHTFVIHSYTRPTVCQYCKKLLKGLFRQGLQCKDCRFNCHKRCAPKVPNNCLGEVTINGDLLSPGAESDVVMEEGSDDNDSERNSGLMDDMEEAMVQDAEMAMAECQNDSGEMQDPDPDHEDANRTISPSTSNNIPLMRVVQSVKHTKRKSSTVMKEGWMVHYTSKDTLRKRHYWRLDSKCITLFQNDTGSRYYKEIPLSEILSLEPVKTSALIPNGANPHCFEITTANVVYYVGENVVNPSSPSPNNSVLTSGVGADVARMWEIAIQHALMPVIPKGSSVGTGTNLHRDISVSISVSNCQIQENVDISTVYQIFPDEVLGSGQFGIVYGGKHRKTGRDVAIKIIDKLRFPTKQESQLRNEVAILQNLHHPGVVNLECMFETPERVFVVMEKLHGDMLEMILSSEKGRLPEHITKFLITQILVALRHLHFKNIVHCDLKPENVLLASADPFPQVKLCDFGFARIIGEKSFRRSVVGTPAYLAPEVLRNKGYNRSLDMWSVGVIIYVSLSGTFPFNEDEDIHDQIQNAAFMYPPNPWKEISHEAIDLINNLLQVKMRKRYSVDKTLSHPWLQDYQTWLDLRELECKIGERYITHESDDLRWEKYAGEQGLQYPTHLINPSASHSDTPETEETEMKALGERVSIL
Assay conditions: at 1 µM
Reported metric: inhibition (%)
Give the value in % but do not write % after it.

Report inhibition for CCn1c(-c2nonc2N)nc2c(C#CC(C)(C)O)nc(O[C@@H](CN)c3ccccc3)cc21 please.
61.6

Report inhibition for Fc1ccc(-c2ncn(C3CCNCC3)c2-c2ccnc(Oc3ccccc3)n2)cc1 please.
0.79

Report inhibition for NC(=O)c1sc(-n2cnc3cc(C(F)(F)F)ccc32)cc1OCc1ccccc1Br please.
1.94

Report inhibition for CCn1c(-c2nonc2N)nc2c(C#CC(C)(C)O)ncc(OCC3CCNCC3)c21 please.
6.01

Report inhibition for Cc1cc(-c2ccco2)cc(C)c1/C=C/c1cncc(-c2nn[nH]n2)c1 please.
2.09

Report inhibition for NS(=O)(=O)c1ccc(-c2ccc3c(NC(=O)C4CC4)n[nH]c3c2)cc1 please.
1.47

Report inhibition for CCn1c(-c2nonc2N)nc2c(C#CCN)ncc(OCCCN)c21 please.
-3.02

Report inhibition for Nc1nonc1-c1nc2cnccc2n1C1CCCCC1 please.
2.75

Report inhibition for NS(=O)(=O)c1ccc(N/C=C2\C(=O)Nc3ccc4ncsc4c32)cc1 please.
67.3
